# Assay explanation: In vivo biodistribution in normal ICR mice
# Conditions: i.v., 60 min
Measured parameter: Biodistribution of radioactivity, muscle (% injected dose per gram)

{"columns": ["Compound", "Measured parameter", "Unit name", "Assay result"],
 "data": [
  ["[18F]CCOc1ccc(OCc2ccc(I)cc2)cc1 [[^18F]7a]", "Biodistribution of radioactivity, muscle", "% injected dose per gram", 4.31],
  ["FCCOc1ccc(OCc2ccc([125I])cc2)cc1 [[^125I]7a]", "Biodistribution of radioactivity, muscle", "% injected dose per gram", 1.36],
  ["FCCOc1ccc(COc2ccc([125I])cc2)cc1 [[^125I]12a]", "Biodistribution of radioactivity, muscle", "% injected dose per gram", 1.20],
  ["[18F]CCOc1ccc(COc2ccc(I)cc2)cc1 [[^18F]12a]", "Biodistribution of radioactivity, muscle", "% injected dose per gram", 4.51]
]}

---

Biodistribution of radioactivity, stomach values, listed per item
# Assay explanation: In vivo biodistribution in normal ICR mice
# Conditions: i.v., 10 min
Measured parameter: Biodistribution of radioactivity, stomach (% injected dose per organ)

{"columns": ["Molecule", "Unit name", "Assay result"],
 "data": [
  ["FCCOc1ccc(COc2ccc([125I])cc2)cc1 [[^125I]12a]", "% injected dose per organ", 1.34],
  ["FCCOc1ccc(OCc2ccc([125I])cc2)cc1 [[^125I]7a]", "% injected dose per organ", 1.08],
  ["[18F]CCOc1ccc(COc2ccc(I)cc2)cc1 [[^18F]12a]", "% injected dose per organ", 1.54],
  ["[18F]CCOc1ccc(OCc2ccc(I)cc2)cc1 [[^18F]7a]", "% injected dose per organ", 1.24]
]}

---

# Assay explanation: In vivo biodistribution in normal ICR mice
# Conditions: i.v., 30 min
Biodistribution of radioactivity, blood values, listed per item
Measured parameter: Biodistribution of radioactivity, blood (% injected dose per gram)

{"columns": ["Compound", "Unit name", "Assay result"],
 "data": [
  ["FCCOc1ccc(OCc2ccc([125I])cc2)cc1 [[^125I]7a]", "% injected dose per gram", 2.17],
  ["[18F]CCOc1ccc(COc2ccc(I)cc2)cc1 [[^18F]12a]", "% injected dose per gram", 5.91],
  ["FCCOc1ccc(COc2ccc([125I])cc2)cc1 [[^125I]12a]", "% injected dose per gram", 3.89],
  ["[18F]CCOc1ccc(OCc2ccc(I)cc2)cc1 [[^18F]7a]", "% injected dose per gram", 4.36]
]}

---

# Assay explanation: In vivo biodistribution in normal ICR mice
# Conditions: i.v., 60 min
Biodistribution of radioactivity, brain values, listed per item

{"columns": ["Molecule", "Biodistribution of radioactivity, brain, % injected dose per gram"],
 "data": [
  ["FCCOc1ccc(COc2ccc([125I])cc2)cc1 [[^125I]12a]", 0.37],
  ["[18F]CCOc1ccc(OCc2ccc(I)cc2)cc1 [[^18F]7a]", 3.48],
  ["[18F]CCOc1ccc(COc2ccc(I)cc2)cc1 [[^18F]12a]", 4.26],
  ["FCCOc1ccc(OCc2ccc([125I])cc2)cc1 [[^125I]7a]", 0.55]
]}

---

Biodistribution of radioactivity, lung values, listed per item
# Assay explanation: In vivo biodistribution in normal ICR mice
# Conditions: i.v., 60 min

{"columns": ["Compound", "Biodistribution of radioactivity, lung, % injected dose per gram"],
 "data": [
  ["[18F]CCOc1ccc(COc2ccc(I)cc2)cc1 [[^18F]12a]", 5.19],
  ["[18F]CCOc1ccc(OCc2ccc(I)cc2)cc1 [[^18F]7a]", 4.32],
  ["FCCOc1ccc(OCc2ccc([125I])cc2)cc1 [[^125I]7a]", 4.04],
  ["FCCOc1ccc(COc2ccc([125I])cc2)cc1 [[^125I]12a]", 3.11]
]}

---

Biodistribution of radioactivity, heart values, listed per item
# Assay explanation: In vivo biodistribution in normal ICR mice
# Conditions: i.v., 10 min

{"columns": ["Compound", "Unit name", "Biodistribution of radioactivity, heart"],
 "data": [
  ["FCCOc1ccc(COc2ccc([125I])cc2)cc1 [[^125I]12a]", "% injected dose per gram", 2.12],
  ["[18F]CCOc1ccc(COc2ccc(I)cc2)cc1 [[^18F]12a]", "% injected dose per gram", 4.40],
  ["FCCOc1ccc(OCc2ccc([125I])cc2)cc1 [[^125I]7a]", "% injected dose per gram", 2.01],
  ["[18F]CCOc1ccc(OCc2ccc(I)cc2)cc1 [[^18F]7a]", "% injected dose per gram", 4.03]
]}

---

# Assay explanation: In vivo biodistribution in normal ICR mice
# Conditions: i.v., 60 min

{"columns": ["Molecule", "Unit name", "Biodistribution of radioactivity, heart"],
 "data": [
  ["FCCOc1ccc(COc2ccc([125I])cc2)cc1 [[^125I]12a]", "% injected dose per gram", 1.17],
  ["[18F]CCOc1ccc(OCc2ccc(I)cc2)cc1 [[^18F]7a]", "% injected dose per gram", 4.26],
  ["[18F]CCOc1ccc(COc2ccc(I)cc2)cc1 [[^18F]12a]", "% injected dose per gram", 4.76],
  ["FCCOc1ccc(OCc2ccc([125I])cc2)cc1 [[^125I]7a]", "% injected dose per gram", 1.00]
]}

---

Biodistribution of radioactivity, muscle values, listed per item
# Assay explanation: In vivo biodistribution in normal ICR mice
# Conditions: i.v., 10 min

{"columns": ["Molecule", "Biodistribution of radioactivity, muscle"],
 "data": [
  ["[18F]CCOc1ccc(COc2ccc(I)cc2)cc1 [[^18F]12a]", "3.92 ± 0.41 % injected dose per gram"],
  ["[18F]CCOc1ccc(OCc2ccc(I)cc2)cc1 [[^18F]7a]", "3.46 ± 0.19 % injected dose per gram"],
  ["FCCOc1ccc(OCc2ccc([125I])cc2)cc1 [[^125I]7a]", "1.28 ± 0.11 % injected dose per gram"],
  ["FCCOc1ccc(COc2ccc([125I])cc2)cc1 [[^125I]12a]", "1.31 ± 0.12 % injected dose per gram"]
]}

---

Percentage of Parent tracer, Brain values, listed per item
# Assay explanation: In vivo metabolism (biostability), HPLC analysis of organ samples
# Conditions: ICR mice, i.v., post-injection time 30 min
Measured parameter: Percentage of Parent tracer, Brain (%)

{"columns": ["Compound", "Unit name", "Assay result"],
 "data": [
  ["FCCOc1ccc(OCc2ccc([125I])cc2)cc1 [[^125I]7a]", "%", 79.4],
  ["FCCOc1ccc(COc2ccc([125I])cc2)cc1 [[^125I]12a]", "%", 78.3],
  ["[18F]CCOc1ccc(COc2ccc(I)cc2)cc1 [[^18F]12a]", "%", 49.2],
  ["[18F]CCOc1ccc(OCc2ccc(I)cc2)cc1 [[^18F]7a]", "%", 68.9]
]}

---

# Assay explanation: In vivo biodistribution in normal ICR mice
# Conditions: i.v., 10 min
Measured parameter: Biodistribution of radioactivity, kidney (% injected dose per gram)

{"columns": ["Compound", "Assay result"],
 "data": [
  ["FCCOc1ccc(OCc2ccc([125I])cc2)cc1 [[^125I]7a]", 9.53],
  ["[18F]CCOc1ccc(COc2ccc(I)cc2)cc1 [[^18F]12a]", 6.19],
  ["FCCOc1ccc(COc2ccc([125I])cc2)cc1 [[^125I]12a]", 7.61],
  ["[18F]CCOc1ccc(OCc2ccc(I)cc2)cc1 [[^18F]7a]", 7.69]
]}
